# ASSAYED SYSTEM: glucagon receptor (GCGR) overexpressed CHO-K1 cells or human primary hepatocytes (Homo sapiens)
# Construct: expressed in transfected cells; host or cells: GCGR overexpressed CHO-K1 cells or human primary hepatocytes (endogenous receptor)
# METHOD DESCRIPTION: Glucagon cAMP inhibition assay (Cisbio cAMP Dynamic 2 HTRF)
# Assay type: cell-based
OUTCOME MEASURE: IC50 cAMP (µM)
State just the number; it will be interpreted in µM.

As a guide, the following entries are already answered.
{"MOL": "Cc1cc(C)c(-c2ccc(C[C@H](Nc3ccc(C(=O)NCCS(=O)(=O)O)cc3)C(=O)Nc3ccc(C(C)(C)C)cc3)cc2)c(C)c1", "VALUE UNITS": "µM", "MEASURED NUMBER": 39.3}
{"MOL": "CC[C@H](C)[C@H](Nc1ccc(C(=O)NCCC(=O)O)cc1)C(=O)Nc1ccc(-c2cc3ccccc3o2)cc1", "VALUE UNITS": "µM", "MEASURED NUMBER": 4.145}

Q: So what's the measured IC50 cAMP for this one? CC(C)(C)c1ccc(NC(=O)[C@H](Cc2ccc3ccccc3c2)Nc2ccc(C(=O)NCCC(=O)O)cc2)cc1
Ans: 4.7

###

# ASSAYED SYSTEM: glucagon receptor (GCGR) overexpressed CHO-K1 cells or human primary hepatocytes (Homo sapiens, UniProt P47871)
# Construct: expressed in transfected cells; host or cells: GCGR overexpressed CHO-K1 cells or human primary hepatocytes (endogenous receptor)
# Sequence (P47871 26-477): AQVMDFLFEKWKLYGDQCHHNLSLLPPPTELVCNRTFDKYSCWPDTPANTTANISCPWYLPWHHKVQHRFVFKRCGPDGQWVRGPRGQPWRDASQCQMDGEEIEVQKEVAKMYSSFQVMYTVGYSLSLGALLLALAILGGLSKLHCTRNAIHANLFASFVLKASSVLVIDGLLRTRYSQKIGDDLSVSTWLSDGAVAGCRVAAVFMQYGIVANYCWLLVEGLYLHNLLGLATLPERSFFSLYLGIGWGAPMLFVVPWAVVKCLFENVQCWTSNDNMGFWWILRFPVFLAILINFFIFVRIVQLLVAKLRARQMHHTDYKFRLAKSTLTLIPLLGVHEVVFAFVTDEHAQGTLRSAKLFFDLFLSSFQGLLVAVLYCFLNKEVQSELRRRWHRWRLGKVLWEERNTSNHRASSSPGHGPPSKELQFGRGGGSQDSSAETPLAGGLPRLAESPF
# METHOD DESCRIPTION: Glucagon cAMP inhibition assay (Cisbio cAMP Dynamic 2 HTRF)
# Format: cell-based
# CONDITION LABEL: inhibition of glucagon (EC50 concentration) induced cAMP production
# strict inequality: IC50 cAMP < 0.3 µM yields Y, everything else yields N

{"COMPOUND": "CC(C)[C@@H](COc1ccc(-c2cc3ccccc3o2)c(Cl)c1)Nc1ccc(C(=O)NC[C@@H](O)C(=O)O)cc1", "CLASSIFICATION": "N"}
{"COMPOUND": "Cc1cc(OC[C@@H](Cc2ccccc2)Nc2ccc(C(=O)NCCC(=O)O)cc2)cc(C)c1-c1ccc(C(F)(F)F)cc1", "CLASSIFICATION": "N"}
{"COMPOUND": "CC(C)[C@@H](COc1ccc(-c2ccc(C(F)(F)F)cc2F)cc1)Nc1ccc(C(=O)NCCC(=O)O)cc1", "CLASSIFICATION": "Y"}

Q: Is it true that IC50 cAMP reported for CC[C@H](C)[C@@H](COc1ccc(-c2ccc(OC)cc2Cl)cc1)Nc1ccc(C(=O)NCCC(=O)O)cc1 is less than 0.3 µM?
Ans: Y

###

# ASSAYED SYSTEM: glucagon receptor (GCGR) overexpressed CHO-K1 cells or human primary hepatocytes (Homo sapiens, UniProt P47871)
# Construct: expressed in transfected cells; host or cells: GCGR overexpressed CHO-K1 cells or human primary hepatocytes (endogenous receptor)
# METHOD DESCRIPTION: Glucagon cAMP inhibition assay (Cisbio cAMP Dynamic 2 HTRF)
# Format: cell-based
OUTCOME MEASURE: IC50 cAMP

Q: So what's the measured IC50 cAMP for this one? CC(C)(C)c1ccc(-c2ccc(OC[C@@H](Nc3ccc(C(=O)NC[C@@H](O)C(=O)O)cc3)c3ccccc3)nc2)cc1
Ans: >30000 nM

Q: Also CCOC(=O)CCNC(=O)c1ccc(N[C@@H](Cc2ccc3ccccc3c2)C(=O)Nc2ccc(C(C)(C)C)cc2)cc1 , if possible.
Ans: 5400 nM

Q: Also CC(C)COC[C@H](Cc1ccc(-c2ccc(OC(F)(F)F)cc2)cc1)Nc1ccc(C(=O)NCCC(=O)O)cc1 , if possible.
Ans: 472 nM

Q: Also CCCOC[C@H](Cc1ccc(-c2cc3ccccc3[nH]2)cc1)Nc1ccc(C(=O)NCCC(=O)O)cc1 , if possible.
Ans: 4952 nM

Q: Also CC[C@H](C)[C@@H](COc1ccc(-c2ccc(C(F)(F)F)cc2Cl)c(C)n1)Nc1ccc(C(=O)NCCC(=O)O)cc1 , if possible.
Ans: 75 nM

Q: Also CCOC(=O)CCNC(=O)c1ccc(N[C@H](Cc2ccc(-c3cc4ccccc4o3)cc2)C(=O)Nc2ccc(C(F)(F)F)cc2)cc1 , if possible.
Ans: 538.4 nM

###

# ASSAYED SYSTEM: glucagon receptor (GCGR) (Homo sapiens, UniProt P47871)
# Construct: expressed in transfected cells; host or cells: CHO-K1 cells overexpressing GCGR (membrane fractions)
# Sequence (P47871 26-477): as above
# METHOD DESCRIPTION: I125-glucagon binding assay (competition, GCGR membrane fractions)
# strict inequality: IC50 < 1000 nM yields criterion met, everything else yields criterion not met

Worked cases, answers included:
{"MOLECULE": "CC(C)C[C@H](Nc1ccc(C(=O)NCCC(=O)O)cc1)C(=O)Nc1ccc(-c2ccc(Cl)cc2Cl)cc1 [Compound 23-1]", "CLASSIFICATION": "criterion met"}
{"MOLECULE": "CC(C)[C@@H](COc1nnc(-c2ccc(C(F)(F)F)cc2)o1)Nc1ccc(C(=O)NCCC(=O)O)cc1 [Compound 22-13]", "CLASSIFICATION": "criterion not met"}
{"MOLECULE": "O=C(O)CCNC(=O)c1ccc(N[C@@H](Cc2ccccc2)C(=O)Nc2ccc(-c3ccccc3C(F)(F)F)cc2)cc1 [Compound 23-23]", "CLASSIFICATION": "criterion not met"}

Q: Is it true that IC50 reported for COc1cnc(-c2ccc([C@@H](COc3ccc(-c4cc5ccccc5o4)cn3)Nc3ccc(C(=O)NCCS(=O)(=O)O)cc3)cc2)nc1 [Compound 15-35] is less than 1000 nM?
Ans: criterion met

Q: Also CC(C)C[C@@H](Nc1ccc(C(=O)NCCC(=O)O)cc1)C(=O)Nc1ccc(C(F)(F)F)cc1 [Compound 24-10] , if possible.
Ans: criterion not met

Q: Also CCCC[C@H](Cc1ccc(-c2ccc(C(C)(C)C)cc2)cc1)Nc1ccc(C(=O)NCCC(=O)O)cc1 [Compound 19-7] , if possible.
Ans: criterion met

Q: Also O=C(O)CCNC(=O)c1ccc(N[C@H](Cc2ccc(-c3cc4ccccc4o3)cc2)C(=O)Nc2cc(F)cc(F)c2)cc1 [Compound 24-24] , if possible.
Ans: criterion not met

Q: Also Cc1cc(C)c(-c2ccc(C[C@H](Nc3ccc(C(=O)NCCC(=O)O)cc3)c3nnc(-c4ccc(C(C)(C)C)cc4)o3)cc2)c(C)c1 [Compound 20-5] , if possible.
Ans: criterion not met

Q: Also CC(C)[C@@H](COc1nnc(-c2ccc(C(C)(C)C)cc2)o1)Nc1ccc(C(=O)NCCC(=O)O)cc1 [Compound 22-16] , if possible.
Ans: criterion not met

###

# ASSAYED SYSTEM: glucagon receptor (GCGR) overexpressed CHO-K1 cells or human primary hepatocytes (Homo sapiens)
# Construct: expressed in transfected cells; host or cells: GCGR overexpressed CHO-K1 cells or human primary hepatocytes (endogenous receptor)
# METHOD DESCRIPTION: Glucagon cAMP inhibition assay (Cisbio cAMP Dynamic 2 HTRF)
# Type: cell-based
# CONDITION LABEL: inhibition of glucagon (EC50 concentration) induced cAMP production
OUTCOME MEASURE: IC50 cAMP (nM)
State just the number; it will be interpreted in nM.

{"COMPOUND": "CC(C)[C@@H](COc1ccc(-c2cc3ccccc3o2)cc1)N(C)c1ccc(C(=O)NCCC(=O)O)cc1 [Compound 6-1]", "OUTCOME MEASURE": "IC50 cAMP", "VALUE UNITS": "nM", "MEASURED NUMBER": 204.2}
{"COMPOUND": "CC(C)[C@H](COc1ccc(-c2ccc(C(F)(F)F)cc2Cl)cc1)Nc1ccc(C(=O)NCCC(=O)O)cc1 [Compound 1-35]", "OUTCOME MEASURE": "IC50 cAMP", "VALUE UNITS": "nM", "MEASURED NUMBER": 209.3}
{"COMPOUND": "CC[C@H](C)[C@@H](COc1ccc(-c2cc3ccccc3o2)cc1)Nc1ccc(C(=O)NC[C@@H](O)C(=O)O)cc1 [Compound 1-9]", "OUTCOME MEASURE": "IC50 cAMP", "VALUE UNITS": "nM", "MEASURED NUMBER": 3600}
{"COMPOUND": "CCC(C)[C@@H](Cc1noc(-c2ccc(C(C)(C)C)cc2)n1)Nc1ccc(C(=O)NCCC(=O)O)cc1 (stereo partly shown) [Compound 21-2]", "OUTCOME MEASURE": "IC50 cAMP", "VALUE UNITS": "nM", "MEASURED NUMBER": 1242}
{"COMPOUND": "CC[C@H](C)[C@@H](COc1ccc(-c2ccc(C(F)(F)F)cc2F)nn1)Nc1ccc(C(=O)NCCC(=O)O)cc1 [Compound 17-5]", "OUTCOME MEASURE": "IC50 cAMP", "VALUE UNITS": "nM", "MEASURED NUMBER": 3332}
{"COMPOUND": "CC(C)[C@H](COc1ccc(-c2nc3ccccc3o2)cc1)Nc1ccc(C(=O)NCCC(=O)O)cc1 [Compound 1-54]", "OUTCOME MEASURE": "IC50 cAMP", "VALUE UNITS": "nM", "MEASURED NUMBER": 213}
{"COMPOUND": "CCCC[C@@H](COc1ccc(-c2ccc(C(F)(F)F)cc2)c(Cl)c1)Nc1ccc(C(=O)NCCC(=O)O)cc1 [Compound 3-16]", "OUTCOME MEASURE": "IC50 cAMP", "VALUE UNITS": "nM", "MEASURED NUMBER": 367.7}
{"COMPOUND": "CC(C)[C@@H](COc1ccc(-c2nc3ccccc3o2)cc1)Nc1ccc(C(=O)NCCC(=O)O)cc1 [Compound 1-48]", "OUTCOME MEASURE": "IC50 cAMP", "VALUE UNITS": "nM", "MEASURED NUMBER": 546}

Q: So what's the measured IC50 cAMP for this one? Cc1cc(OC[C@@H](Cc2ccccc2)Nc2ccc(C(=O)NCCC(=O)O)cc2)cc(C)c1-c1ccc(OC(F)(F)F)cc1 [Compound 2-2]
Ans: 474.8

Q: Also CC[C@H](C)[C@@H](COc1ccc(-c2cc3ccccc3o2)c(OC)c1)Nc1ccc(C(=O)NCCC(=O)O)cc1 [Compound 13-1] , if possible.
Ans: 157

Q: Also CC(C)[C@@H](COc1ccc(-c2ccc(N(C)C)cc2)cc1)Nc1ccc(C(=O)NCCC(=O)O)cc1 [Compound 1-12] , if possible.
Ans: 414.3

Q: Also CC(C)[C@@H](COc1cc(F)c(-c2cc3ccccc3o2)c(F)c1)Nc1ccc(C(=O)NCCC(=O)O)cc1 [Compound 7-1] , if possible.
Ans: 495

Q: Also COc1cc(OC[C@@H](Nc2ccc(C(=O)NCCC(=O)O)cc2)C(C)C)ccc1-c1ccc(Cl)cc1Cl [Compound 13-7] , if possible.
Ans: 139

Q: Also CCCC[C@@H](Cc1noc(-c2ccc(C(C)(C)C)cc2)n1)Nc1ccc(C(=O)NCCC(=O)O)cc1 [Compound 21-1] , if possible.
Ans: 170.4

Q: Also CC[C@H](C)[C@@H](CSc1ccc(-c2ccc(C(F)(F)F)cc2)cc1)Nc1ccc(C(=O)NCCC(=O)O)cc1 [Compound 5-2] , if possible.
Ans: 2465
